Every entry's value here was drawn from patent US5281710A.

- Test system: SK-Mel-28 melanoma cells
- ASSAY DETAILS: Sulforhodamine B cytotoxicity, SK-Mel-28
- Format: cell-based
- SETTINGS: Homo sapiens, SK-MEL-28, Table 7, SK-Mel-28; read-out: Cytotoxicity (IC50)
ATTRIBUTE MEASURED: pIC50
Value format note: pIC50 is -log10 of concentration (mol/L); just state the number.

CC(COC(=O)N1c2ccccc2C23OC24CCCC3C#CC=CC#CC14)S(=O)(=O)c1ccccc1 (stereo not drawn); 4.30

Entry O=C(Oc1ccccc1)N1c2ccccc2C23OC24CCCC3C#C/C=C\C#CC14 (stereo not drawn) ; pIC50 = 4.20
